Measured values drawn from paper PMC7895462 for this set.

System: MES-induced seizures
test.protocol: Maximal electroshock
Format: in vivo
condition.context: i.p.
endpoint.name: Rat I.P. identification MES

NC(=O)N1c2ccccc2C=Cc2ccccc21 [Carbamazepine, carbamazepine] = +
CN1C(=O)CC(=O)N(c2ccccc2)c2cc(Cl)ccc21 [Clobazam, clobazam] = −
Cc1ccsc1C(=CCCN1CCC[C@@H](C(=O)O)C1)c1sccc1C [Tiagabine, tiagabine] = −
CC(=O)Nc1ccc(O)cc1 [Acetaminophen, acetaminophen] = −
CC[C@@H](C(N)=O)N1CCCC1=O [Levetiracetam, levetiracetam] = −

###

# TD50 per entry
test.protocol: in vivo
condition.context: mouse, po
endpoint.name: TD50 (mg/kg)

CN1C(=O)CC(=O)N(c2ccccc2)c2cc(Cl)ccc21 [Clobazam, clobazam] = 197
OC[C@H]1O[C@@H](n2cnc3c(NC4CCCC4)ncnc32)[C@H](O)[C@@H]1O [N6-Cyclopentyladenosine, N^6-cyclopentyladenosine] = 6.94
Cc1ccsc1C(=CCCN1CCC[C@@H](C(=O)O)C1)c1sccc1C [Tiagabine, tiagabine] = 33.2
NC(=O)N1c2ccccc2C=Cc2ccccc21 [Carbamazepine, carbamazepine] = 95.4

###

condition.context: in vivo, po
endpoint.name: Rat P.O. identification TOX

CC(=O)Nc1ccc(O)cc1 = −
NC(=O)N1c2ccccc2C=Cc2ccccc21 [Carbamazepine, carbamazepine] = +
CCCC(CCC)C(=O)O = −
CC[C@@H](C(N)=O)N1CCCC1=O = −
Cc1ccsc1C(=CCCN1CCC[C@@H](C(=O)O)C1)c1sccc1C = −

###

test.protocol: Minimal motor impairment
condition.context: p.o.
endpoint.name: Rat P.O. identification TOX

Clc1cccc(N2CCNCC2)c1 = −
CN1C(=O)CC(=O)N(c2ccccc2)c2cc(Cl)ccc21 = −
OC[C@H]1O[C@@H](n2cnc3c(NC4CCCC4)ncnc32)[C@H](O)[C@@H]1O = +
CCOC(=O)Nc1ccc(NCc2ccc(F)cc2)cc1N = +

###

test.protocol: Minimal motor impairment
condition.context: rat, in vivo, po, Rat P.O. quantification TOX (TD50)
endpoint.name: TD50 (mg/kg)

CCOC(=O)Nc1ccc(NCc2ccc(F)cc2)cc1N [Retigabine, retigabine] = 64.4

###

test.protocol: Minimal motor impairment
condition.context: i.p.
endpoint.name: Rat I.P. identification TOX

OC[C@H]1O[C@@H](n2cnc3c(NC4CCCC4)ncnc32)[C@H](O)[C@@H]1O = +
Clc1cccc(N2CCNCC2)c1 = −
CCOC(=O)Nc1ccc(NCc2ccc(F)cc2)cc1N = +
CN1C(=O)CC(=O)N(c2ccccc2)c2cc(Cl)ccc21 = −

###

condition.context: p.o.; 0.5 and 2 h; default doses 30, 100, 300 mg/kg
endpoint.name: Mouse P.O. identification TOX

Clc1cccc(N2CCNCC2)c1 = −
OC[C@H]1O[C@@H](n2cnc3c(NC4CCCC4)ncnc32)[C@H](O)[C@@H]1O = +
CCOC(=O)Nc1ccc(NCc2ccc(F)cc2)cc1N = +
CN1C(=O)CC(=O)N(c2ccccc2)c2cc(Cl)ccc21 = −

###

Test system: psychomotor seizures induced by 6 Hz 44 mA corneal stimulus
test.protocol: 6 Hz 44 mA mouse test
Type: in vivo
condition.context: Mus musculus, po, read-out: Mouse P.O. quantification 44 mA (ED50)
Under this convention, true denotes ED50 strictly below 2 mg/kg and false denotes ED50 at or above 2 mg/kg.

OC[C@H]1O[C@@H](n2cnc3c(NC4CCCC4)ncnc32)[C@H](O)[C@@H]1O = true
CCCC(CCC)C(=O)O = false
CC[C@@H](C(N)=O)N1CCCC1=O = false
CN1C(=O)CC(=O)N(c2ccccc2)c2cc(Cl)ccc21 = false
NC(=O)N1c2ccccc2C=Cc2ccccc21 [Carbamazepine, carbamazepine] = false
CCOC(=O)Nc1ccc(NCc2ccc(F)cc2)cc1N = false
Cc1ccsc1C(=CCCN1CCC[C@@H](C(=O)O)C1)c1sccc1C = true
